- Tested on: A549, human lung carcinoma cell line
- measurementDescription: Cytotoxicity assay (Hoechst DNA assay), A549
- Type: cell-based
- measurementSetup: Homo sapiens, A549; isolated compounds; concentration inhibiting 50% cell growth; 48 h; mean of three independent assays
Please provide measured IC50 for the entries that follow.
Give the value in µM but do not write µM after it.

In one line, give reported IC50 of the entry CC(C)(O)c1ccc2c(c1)CC[C@H]1[C@](C)(C(=O)O)CCC[C@]21C [Compound 7, 15-hydroxydehydroabietic acid] .
98

Give IC50 for CC(C)(O)c1ccc2c(c1)C(=O)C[C@H]1[C@](C)(O)CCC[C@]21C [Compound 13]
46

====

- System: A549, human lung carcinoma cell line
- measurementDescription: Cytotoxicity assay (Hoechst DNA assay), A549
- Format: cell-based
- measurementSetup: Homo sapiens, A549; isolated compounds; concentration inhibiting 50% cell growth; 48 h; mean of three independent assays
Kindly supply the reported IC50 values for the records listed here.

Consider the compound CC(C)(O)c1ccc2c(c1)C(O)CC1C(C)(CO)CCCC21C (stereo not drawn) [Compound 2, 7β,15,18-trihydroxyabieta-8,11,13-triene] . State its measured IC50.
> 100 µM

Given C[C@@]1(CO)CCC[C@]2(C)c3ccc(O)cc3CCC12 (some centres unmarked) , respond with its IC50.
> 100 µM

Provide one value: measured IC50 of CC(C)c1ccc2c(c1)[C@H](O)CC1[C@](C)(O)CCC[C@]21C (some centres unmarked)
63 µM

Look up IC50 of CC(C)c1ccc2c(c1)[C@@H](O)CC1[C@](C)(O)CCC[C@]21C (some centres unmarked) and report it.
> 100 µM

Answer with reported IC50 of CC(C)(O)c1ccc2c(c1)[C@@H](O)CC1[C@](C)(C(=O)O)CCC[C@]21C (stereo partly drawn) [Compound 6, 7β,15-dihydroxydehydroabietic acid]
> 100 µM

Please give the documented IC50 of COc1cc([C@@H]2c3cc4c(cc3[C@@H](O[C@@H]3O[C@@H]5CO[C@@H](C)O[C@H]5[C@H](O)[C@H]3O)[C@H]3COC(=O)[C@H]23)OCO4)cc(OC)c1O [Etoposide, reference compound]
0.7 µM

For the compound CC(C)(O)c1ccc2c(c1)[C@H](O)CC1[C@](C)(C(=O)O)CCC[C@]21C (stereo partly drawn) [Compound 5, 7α,15-dihydroxydehydroabietic acid] , give its reported IC50.
> 100 µM

Please list IC50 recorded for the compound CC(C)(O)c1ccc2c(c1)C(=O)CC1[C@](C)(CO)CCC[C@]21C (some centres unmarked)
> 100 µM

====

- Test system: Escherichia coli ATCC 25922
- measurementDescription: Antibacterial microdilution assay (resazurin), E. coli
- Assay type: cell-based
- measurementSetup: ATCC25922, isolated compounds, 6 h at 37 °C
measurementKind: IC50

Provide only the value of recorded IC50 for CC(C)(O)c1ccc2c(c1)C(=O)CC1[C@](C)(CO)CCC[C@]21C (some centres unmarked) [Compound 14]
> 100 µM

Answer with the recorded IC50 for the molecule listed here: C=C(C)c1ccc2c(c1)[C@H](O)CC1[C@](C)(C(=O)O)CCC[C@]21C (some centres unmarked) [Compound 1]
> 100 µM

Kindly indicate its recorded IC50. Item: CC(C)c1ccc2c(c1)[C@H](O)CC1[C@](C)(O)CCC[C@]21C (stereo partly drawn) [Compound 8, 18-nor-abieta-8,11,13-triene-4,7α-diol]
> 100 µM

Given the molecule CC(C)(O)c1ccc2c(c1)C(O)CC1C(C)(CO)CCCC21C (stereo not drawn) [Compound 2, 7β,15,18-trihydroxyabieta-8,11,13-triene] , write its reported IC50.
> 100 µM

Give the value of IC50 reported for the following: O=C(N[C@H](CO)[C@H](O)c1ccc([N+](=O)[O-])cc1)C(Cl)Cl [Chloramphenicol, reference compound]
0.37 µM

Reference source: paper PMC6268314
